# Target Under Test: VAV1 (Homo sapiens, UniProt P15498+Q96SW2)
# Construct: A heterozygous VAV1 C-terminal HiBiT knock-in pool was generated at Monte Rosa Therapeutics from a clonal Jurkat cell; endogenous in cells; host or cells: Jurkat clone stably expressing LgBiT, homozygous GSPT1-G575N; heterozygous VAV1-HiBiT knock-in pool
# Assay: VAV1 degradation activity, VAV1-HiBiT knock-in Jurkat luminescence assay (Example A, Table 1)
# Assay type: cell-based
# Condition Info: Jurkat, VAV1-HiBiT knock-in Jurkat cells, luminescence read at 6 and 24 hours; read-out: VAV1 Dmax %, class
Parameter Dmax: see the listing below.
Value Type: Dmax

• O=C1CCC(c2cccc(-c3ccc(N4CCCCC4=O)nc3)c2Cl)C(=O)N1 (stereo not drawn) = 60 to 90%
• CN1CC(=O)N(Cc2ccc(-c3cccc(C4CCC(=O)NC4=O)c3Cl)cc2)c2cnccc21 (stereo not drawn) = 60 to 90%
• O=C1CCC(c2cccc(-c3ccc(-n4ccccc4=O)cc3)c2Cl)C(=O)N1 (stereo not drawn) = > 90%
• O=C1CCC(c2cccc(-c3ccc(N4CCOCC4)cc3)c2Cl)C(=O)N1 (stereo not drawn) = < 60%
• CC1(Cc2ccc(-c3cccc(C4CCC(=O)NC4=O)c3Cl)cc2)COC1 (stereo not drawn) = > 90%
• O=C1CCC(c2cccc(-c3ccc(Nc4ccccn4)cc3)c2Cl)C(=O)N1 (stereo not drawn) = > 90%
• O=C1CCC(c2cccc(-c3ccc(N4CCn5nccc5C4=O)cc3)c2Cl)C(=O)N1 (stereo not drawn) = 60 to 90%
• O=C1CCC(c2cccc(-c3ccc(N4CCC5(COC5)CC4=O)cc3)c2Cl)C(=O)N1 (stereo not drawn) = > 90%
• COC1(CN2C(=O)Cc3cc(-c4cccc(C5CCC(=O)NC5=O)c4Cl)ccc32)CC1 (stereo not drawn) = < 60%
• CC1CCCC(=O)N1Cc1ccc(-c2cccc(C3CCC(=O)NC3=O)c2Cl)cc1 (stereo not drawn) = > 90%
• O=C1CCC(c2cccc(-c3ccc(N4CCC(Cn5ccccc5=O)CC4)cc3)c2Cl)C(=O)N1 (stereo not drawn) = 60 to 90%
• O=C1CCC(c2cccc(-c3ccc(Cn4ccnc4)cc3)c2Cl)C(=O)N1 (stereo not drawn) = 60 to 90%
• CN1CC(=O)N(c2ccc(-c3cccc(C4CCC(=O)NC4=O)c3Cl)cc2)CC1(C)C (stereo not drawn) = > 90%
• O=C1CCC(c2cccc(-c3ccc(N4Cc5nccn5CC4=O)cc3)c2Cl)C(=O)N1 (stereo not drawn) = > 90%
• CNc1ccc(-c2cccc(C3CCC(=O)NC3=O)c2Cl)cc1C (stereo not drawn) = > 90%
• CN1CCN(c2ccc(-c3cccc(C4CCC(=O)NC4=O)c3Cl)cc2)C1=O (stereo not drawn) = < 60%
• O=C1CCC(c2cccc(-c3ccc(NC(=O)N4CCCC4)cc3)c2Cl)C(=O)N1 (stereo not drawn) = 60 to 90%
• CN1CC(=O)N(Cc2ccc(-c3cccc(C4CCC(=O)NC4=O)c3Cl)cc2)CC1(C)C (stereo not drawn) = > 90%
• CN1CCC[C@@H](c2ccc(-c3cccc(C4CCC(=O)NC4=O)c3Cl)cc2)C1=O (stereo partly drawn) = > 90%
• Cn1ccc(COc2ccc(-c3cccc(C4CCC(=O)NC4=O)c3F)cc2)n1 (stereo not drawn) = 60 to 90%
• CNc1ccc(-c2cccc(C3CCC(=O)NC3=O)c2Cl)cc1 (stereo not drawn) = > 90%
• Cn1ccc(CNc2ccc(-c3cccc(C4CCC(=O)NC4=O)c3Cl)cc2)n1 (stereo not drawn) = 60 to 90%
• O=C1CCC(c2cccc(-c3ccc(N4CCCC(F)C4=O)cc3)c2Cl)C(=O)N1 (stereo not drawn) = > 90%
• O=C1CCC(c2cccc(-c3ccc(Cc4cccnn4)cc3)c2Cl)C(=O)N1 (stereo not drawn) = > 90%
• Cn1ccc(COc2ccc(-c3cccc(C4CCC(=O)NC4=O)c3Cl)c(Cl)c2)n1 (stereo not drawn) = < 60%
• CN1CC2(CCC(=O)N2c2ccc(-c3cccc(C4CCC(=O)NC4=O)c3Cl)cc2)C1 (stereo not drawn) = < 60%
• CC1CCCN(c2ccc(-c3cccc(C4CCC(=O)NC4=O)c3Cl)cc2)C1=O (stereo not drawn) = > 90%
• CC1Oc2ccncc2N(Cc2ccc(-c3cccc(C4CCC(=O)NC4=O)c3Cl)cc2)C1=O (stereo not drawn) = > 90%
• Cc1ccnc(Cc2ccc(-c3cccc(C4CCC(=O)NC4=O)c3Cl)cc2)n1 (stereo not drawn) = > 90%
• CN1CC(=O)N(c2ccc(-c3cccc(C4CCC(=O)NC4=O)c3Cl)cc2)CC12CC2 (stereo not drawn) = 60 to 90%
• O=C1CCC(c2cccc(-c3ccc4[nH]ccc4c3)c2Cl)C(=O)N1 (stereo not drawn) = > 90%
• O=C1CCC(c2cccc(-c3ccc(N4CCN(CC(F)(F)F)CC4=O)cc3)c2Cl)C(=O)N1 (stereo not drawn) = > 90%
• O=C1CCC(c2cccc(-c3ccc(N4C(=O)CCn5nccc54)cc3)c2Cl)C(=O)N1 (stereo not drawn) = 60 to 90%

====

# Target Under Test: VAV1 (Homo sapiens, UniProt P15498+Q96SW2)
# Construct: A heterozygous VAV1 C-terminal HiBiT knock-in pool was generated at Monte Rosa Therapeutics from a clonal Jurkat cell; endogenous in cells; host or cells: Jurkat clone stably expressing LgBiT, homozygous GSPT1-G575N; heterozygous VAV1-HiBiT knock-in pool
# Assay: VAV1 degradation activity, VAV1-HiBiT knock-in Jurkat luminescence assay (Example A, Table 1)
# Type: cell-based
# Condition Info: Jurkat, VAV1-HiBiT knock-in Jurkat cells, luminescence read at 6 and 24 hours; read-out: VAV1 Dmax %
Tag: true (1) if measured Dmax is not below 90%, false (0) if it is.

• O=C1CCC(c2cccc(-c3ccc(Cc4nccc(C(F)(F)F)n4)cc3)c2Cl)C(=O)N1 (centres unmarked) = true (1)
• CN1CCCN(Cc2ccc(-c3cccc(C4CCC(=O)NC4=O)c3Cl)cc2)C1=O (centres unmarked) = true (1)
• O=C1CCC(c2cccc(-c3ccc(CS(=O)(=O)N4CCCC4)cc3)c2Cl)C(=O)N1 (centres unmarked) = false (0)
• Cn1ncc2c1CCC(=O)N2c1ccc(-c2cccc(C3CCC(=O)NC3=O)c2Cl)cc1 (centres unmarked) = true (1)
• Cc1cc(-c2cccc(C3CCC(=O)NC3=O)c2Cl)ccc1N (centres unmarked) = true (1)
• Cn1ccc(COc2ccc(-c3cccc(C4CCC(=O)NC4=O)c3F)cc2)n1 (centres unmarked) = false (0)

====

# Target Under Test: VAV1 (Homo sapiens, UniProt P15498+Q96SW2)
# Construct: A heterozygous VAV1 C-terminal HiBiT knock-in pool was generated at Monte Rosa Therapeutics from a clonal Jurkat cell; endogenous in cells; host or cells: Jurkat clone stably expressing LgBiT, homozygous GSPT1-G575N; heterozygous VAV1-HiBiT knock-in pool
# Assay: VAV1 degradation activity, VAV1-HiBiT knock-in Jurkat luminescence assay (Example A, Table 1)
# Format: cell-based
# Condition Info: VAV1-HiBiT knock-in Jurkat cells, luminescence read at 6 and 24 hours; read-out: VAV1 DC50
Value Type: DC50 (nM)

- CC1(C)CN(c2ccc(-c3cccc(C4CCC(=O)NC4=O)c3Cl)cc2)C(=O)CO1 (stereo not shown): 21.9
- O=C1CC[C@@](F)(c2cccc(-c3ccc(N4CCCCC4=O)cc3)c2Cl)C(=O)N1 (single isomer, unassigned): 1.84

====

# Target Under Test: VAV1 (Homo sapiens, UniProt P15498+Q96SW2)
# Construct: A heterozygous VAV1 C-terminal HiBiT knock-in pool was generated at Monte Rosa Therapeutics from a clonal Jurkat cell; endogenous in cells; host or cells: Jurkat clone stably expressing LgBiT, homozygous GSPT1-G575N; heterozygous VAV1-HiBiT knock-in pool
# Assay: VAV1 degradation activity, VAV1-HiBiT knock-in Jurkat luminescence assay (Example A, Table 1)
# Type: cell-based
# Condition Info: Jurkat, VAV1-HiBiT knock-in Jurkat cells, luminescence read at 6 and 24 hours after compound addition; read-out: VAV1 Dmax %, class
Value Type: Dmax

• Cn1cnc(CN2C(=O)Cc3cc(-c4cccc(C5CCC(=O)NC5=O)c4Cl)ccc32)c1 (stereo not shown) = > 90%
• CC1(C)Cc2cc(-c3cccc(C4CCC(=O)NC4=O)c3Cl)ccc2N1 (stereo not shown) = > 90%
• O=C1CCC(c2cccc(-c3ccc4cc[nH]c4c3)c2Cl)C(=O)N1 (stereo not shown) = 60 to 90%
• O=C1CCC(c2cccc(-c3ccc4c(c3)CCN4)c2Cl)C(=O)N1 (stereo not shown) = 60 to 90%

====

Parameter Dmax: see the listing below.
# Target Under Test: VAV1 (Homo sapiens, UniProt P15498+Q96SW2)
# Construct: A heterozygous VAV1 C-terminal HiBiT knock-in pool was generated at Monte Rosa Therapeutics from a clonal Jurkat cell; endogenous in cells; host or cells: Jurkat clone stably expressing LgBiT, homozygous GSPT1-G575N; heterozygous VAV1-HiBiT knock-in pool
# Assay: VAV1 degradation activity, VAV1-HiBiT knock-in Jurkat luminescence assay (Example A, Table 1)
# Assay type: cell-based
# Condition Info: Jurkat, VAV1-HiBiT knock-in Jurkat cells, luminescence read at 6 and 24 hours; read-out: VAV1 Dmax %, class
Value Type: Dmax

* O=C1CCC(c2cccc(-c3ccc(CN4CCn5nccc5C4=O)cc3)c2Cl)C(=O)N1 (stereo not shown) [Compound 275] | 60 to 90%
* CC1CCCN(Cc2ccc(-c3cccc(C4CCC(=O)NC4=O)c3Cl)cc2)C1=O (stereo not shown) [Compound 287] | > 90%
* O=C1CCC(c2cccc(-c3ccc(N4C(=O)CCC45CC5)cc3)c2Cl)C(=O)N1 (stereo not shown) [Compound 414] | > 90%
* Cn1cccc(-c2ccc(-c3cccc(C4CCC(=O)NC4=O)c3Cl)cc2)c1=O (stereo not shown) [Compound 225] | > 90%
